test system: Mycobacterium tuberculosis; experiment: Inhibition of Mycobacterium tuberculosis CysM expressed in Escherichia coli strain BL21 (DE3) assessed as apparent first-order rate constant for the formation of the alpha-aminoacrylate intermediate at 100 uM incubated for 5 mins in presence of OPS by spectrophotometry
PROPERTY_MEASURED: K (min⁻¹)

# SMI, UNIT_OF_MEASUREMENT, CENSOR_SYMBOL, NUMBER
rows = [
    ("CC(=O)c1ccc(NC(=O)Nc2cccc(C(=O)O)c2)cc1", "min⁻¹", ">", 20),
    ("O=C(NCc1ccc(Cl)c(Cl)c1)Nc1cccc(C(=O)O)c1", "min⁻¹", ">", 20),
    ("O=C(Nc1cccc(-c2nnn[nH]2)c1)Nc1ccc(Cl)c(Cl)c1", "min⁻¹", ">", 20),
    ("O=C(O)c1cccc(NC(=S)Nc2ccc(Cl)cc2)c1", "min⁻¹", ">", 20),
    ("O=C(Nc1ccc(Cl)cc1)Nc1cccc(C(=O)O)c1", "min⁻¹", "=", 0.24),
    ("O=C(Nc1cccc(C(=O)O)c1)Nc1ccc(Cl)c(Cl)c1", "min⁻¹", "=", 0.1),
    ("O=C(Nc1cccc(C(=O)O)c1)Nc1cccc(-c2ccccc2)c1", "min⁻¹", "=", 0.24),
    ("O=C(Nc1ccc(Cl)c(Cl)c1)Nc1ccc(O)c(C(=O)O)c1", "min⁻¹", ">", 20),
    ("O=C(Nc1ccc([N+](=O)[O-])cc1)Nc1cccc(C(=O)O)c1", "min⁻¹", "=", 2.22),
    ("O=C(Nc1ccc(Br)cc1)Nc1cccc(C(=O)O)c1", "min⁻¹", "=", 0.48),
    ("O=C(Nc1cccc(-c2ccccc2)c1)Nc1ccc(C(=O)O)c(O)c1", "min⁻¹", "=", 0.48),
]
